- targetEntity: Grb2 SH2 (UniProt P62993)
- experimentNotes: SH2 binding enrichment of the phosphorylated peptide, bacterial display (enrichment ratio); higher = better substrate or ligand; peptides without Tyr show the background
propertyLabel: SH2 binding enrichment

Examples with their reported SH2 binding enrichment follow.
• LSIQTYSALNF [DES_Y423_P419S] = 0.824
• GSIQQYTYKQE [PRG4_Y1271_I1272T] = 0.604
• PIAPVYAASMV [ACAT1_Y331] = 0.882
• TTSQPYRRLCS [USH2A_Y534_C536R] = 0.622
• FKDGQYWIRGR [ACSF3_Y466] = 0.825
• AFLQTYSHEVS [PCDHGA5_Y753] = 1.01
• LHRHAYPEQQQ [DPPA2_Y127_R131Q] = 1.02
• LRNIDYFRLDG [ATRX_Y2083_YF] = 0.761
• NDKLRYEVSSP [CDH13_Y66] = 0.711
• DSLASYLDKVR [KRT10_Y160_R156S] = 0.867

A: KPVDTYYDSTR [DYNC2H1_Y2230_M2227V]
B: IVGLLYRLLTE [SETX_Y1978]
C: SHGQDYLVGNK [GSTA1_Y147]
// ascending sort on recorded SH2 binding enrichment # format: label list in the order the request specifies
C, A, B

====

- targetEntity: MERTK (UniProt Q12866)
- Sequence (Q12866 whole entry, looked up): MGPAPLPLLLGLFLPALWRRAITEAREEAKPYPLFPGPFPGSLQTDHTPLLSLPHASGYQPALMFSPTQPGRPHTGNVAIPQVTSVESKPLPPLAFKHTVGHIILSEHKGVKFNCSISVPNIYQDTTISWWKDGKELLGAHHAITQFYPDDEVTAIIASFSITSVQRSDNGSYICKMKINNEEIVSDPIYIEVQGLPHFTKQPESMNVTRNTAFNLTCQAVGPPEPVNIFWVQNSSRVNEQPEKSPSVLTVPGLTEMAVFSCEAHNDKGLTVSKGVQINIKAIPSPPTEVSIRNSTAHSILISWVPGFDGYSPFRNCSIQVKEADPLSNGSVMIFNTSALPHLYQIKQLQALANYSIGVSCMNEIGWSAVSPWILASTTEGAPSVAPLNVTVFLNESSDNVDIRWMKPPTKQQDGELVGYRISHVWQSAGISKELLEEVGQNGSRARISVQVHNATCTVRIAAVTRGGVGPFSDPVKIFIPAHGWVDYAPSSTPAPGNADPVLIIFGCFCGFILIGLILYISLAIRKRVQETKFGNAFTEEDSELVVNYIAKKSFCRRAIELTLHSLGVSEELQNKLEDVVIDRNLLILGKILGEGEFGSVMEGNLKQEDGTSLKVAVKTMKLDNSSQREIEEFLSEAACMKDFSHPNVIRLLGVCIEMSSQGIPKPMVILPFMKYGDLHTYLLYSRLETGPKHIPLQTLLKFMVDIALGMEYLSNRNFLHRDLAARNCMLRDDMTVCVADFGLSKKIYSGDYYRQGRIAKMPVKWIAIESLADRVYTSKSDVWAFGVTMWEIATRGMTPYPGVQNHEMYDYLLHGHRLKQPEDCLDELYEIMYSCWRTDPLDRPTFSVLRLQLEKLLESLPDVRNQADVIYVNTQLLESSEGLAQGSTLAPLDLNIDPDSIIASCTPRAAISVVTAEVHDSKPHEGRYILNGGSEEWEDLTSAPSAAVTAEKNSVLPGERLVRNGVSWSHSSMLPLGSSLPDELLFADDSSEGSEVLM
- experimentNotes: phosphorylation enrichment, bacterial display (enrichment ratio); higher = better substrate or ligand; peptides without Tyr show the background
propertyLabel: phosphorylation enrichment
The reply should be a number, written without any unit.

Examples with their reported phosphorylation enrichment follow.
* PTEAQYRFIYM [PTPN11_Y511_Q506P] | 1.18
* HDRNTYEKYLE [TF_Y666_G671E] | 0.506

What value of phosphorylation enrichment has been reported for the following sequence? DTCPPYVLSQG [GJB4_Y237]
0.439

Next record, please: DGQVNYEEFVQ [CALM1_Y139]
0.487

Next record, please: KNITEYCRHLI [RECQL_Y492_D495H]
0.43

====

- targetEntity: Fyn (UniProt P06241)
- Sequence (P06241 whole entry, looked up): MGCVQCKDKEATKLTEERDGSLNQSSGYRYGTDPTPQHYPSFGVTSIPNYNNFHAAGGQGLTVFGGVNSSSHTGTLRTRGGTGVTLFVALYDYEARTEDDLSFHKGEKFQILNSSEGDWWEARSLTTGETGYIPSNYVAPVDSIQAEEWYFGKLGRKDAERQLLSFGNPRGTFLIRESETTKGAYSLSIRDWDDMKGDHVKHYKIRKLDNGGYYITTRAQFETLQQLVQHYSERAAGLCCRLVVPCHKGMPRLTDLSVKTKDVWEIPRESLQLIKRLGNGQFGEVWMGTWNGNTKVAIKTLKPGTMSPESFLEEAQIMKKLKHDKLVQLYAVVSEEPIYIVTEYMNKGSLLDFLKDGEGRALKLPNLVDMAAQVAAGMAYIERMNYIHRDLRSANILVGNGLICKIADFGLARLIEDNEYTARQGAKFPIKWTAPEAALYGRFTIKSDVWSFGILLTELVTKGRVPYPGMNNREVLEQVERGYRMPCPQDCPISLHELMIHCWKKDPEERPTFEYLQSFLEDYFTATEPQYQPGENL
- experimentNotes: phosphorylation enrichment, bacterial display (enrichment ratio); higher = better substrate or ligand; peptides without Tyr show the background
propertyLabel: phosphorylation enrichment
The reply should be a number, written without any unit.

Examples with their reported phosphorylation enrichment follow.
- SSPMKYQQNVS [EGFEM1P_Y160]: 0.339
- SVICTYSPALN [TP53_Y126_T123I]: 0.546
- CTTIHDNYMCN [TP53_Y234_Y234D]: 0.435
- DTCPPYVLSQG [GJB4_Y237]: 0.663
- ADLAKYICENQ [ALB_Y287]: 0.461
- ENRLDYGSAWA [AR_Y395_P392R]: 0.498
- QEGPEYWDLET [HLA-A_Y83_Q86L]: 0.846
- WHHTFYNEPRV [ACTA1_Y93_L96P]: 0.429
- IRSGIYYKPES [L2HGDH_Y102_H98R]: 1.97
- SPPILYSFYLN [FCRL6_Y239_D244N]: 2.18

What value of phosphorylation enrichment has been reported for the following sequence? EKLQKYFRKNP [EHHADH_Y682_Q685K_YF]
0.527

Next record, please: AVNDFYAAKKT [CCDC178_Y422]
0.508

Next record, please: LRVGFYESDVM [A2M_Y708]
1.28

Next record, please: GFAIVYGTIIL [GPR179_Y460]
0.431

====

- targetEntity: Jak2 (UniProt O60674)
- Sequence (O60674 whole entry, looked up): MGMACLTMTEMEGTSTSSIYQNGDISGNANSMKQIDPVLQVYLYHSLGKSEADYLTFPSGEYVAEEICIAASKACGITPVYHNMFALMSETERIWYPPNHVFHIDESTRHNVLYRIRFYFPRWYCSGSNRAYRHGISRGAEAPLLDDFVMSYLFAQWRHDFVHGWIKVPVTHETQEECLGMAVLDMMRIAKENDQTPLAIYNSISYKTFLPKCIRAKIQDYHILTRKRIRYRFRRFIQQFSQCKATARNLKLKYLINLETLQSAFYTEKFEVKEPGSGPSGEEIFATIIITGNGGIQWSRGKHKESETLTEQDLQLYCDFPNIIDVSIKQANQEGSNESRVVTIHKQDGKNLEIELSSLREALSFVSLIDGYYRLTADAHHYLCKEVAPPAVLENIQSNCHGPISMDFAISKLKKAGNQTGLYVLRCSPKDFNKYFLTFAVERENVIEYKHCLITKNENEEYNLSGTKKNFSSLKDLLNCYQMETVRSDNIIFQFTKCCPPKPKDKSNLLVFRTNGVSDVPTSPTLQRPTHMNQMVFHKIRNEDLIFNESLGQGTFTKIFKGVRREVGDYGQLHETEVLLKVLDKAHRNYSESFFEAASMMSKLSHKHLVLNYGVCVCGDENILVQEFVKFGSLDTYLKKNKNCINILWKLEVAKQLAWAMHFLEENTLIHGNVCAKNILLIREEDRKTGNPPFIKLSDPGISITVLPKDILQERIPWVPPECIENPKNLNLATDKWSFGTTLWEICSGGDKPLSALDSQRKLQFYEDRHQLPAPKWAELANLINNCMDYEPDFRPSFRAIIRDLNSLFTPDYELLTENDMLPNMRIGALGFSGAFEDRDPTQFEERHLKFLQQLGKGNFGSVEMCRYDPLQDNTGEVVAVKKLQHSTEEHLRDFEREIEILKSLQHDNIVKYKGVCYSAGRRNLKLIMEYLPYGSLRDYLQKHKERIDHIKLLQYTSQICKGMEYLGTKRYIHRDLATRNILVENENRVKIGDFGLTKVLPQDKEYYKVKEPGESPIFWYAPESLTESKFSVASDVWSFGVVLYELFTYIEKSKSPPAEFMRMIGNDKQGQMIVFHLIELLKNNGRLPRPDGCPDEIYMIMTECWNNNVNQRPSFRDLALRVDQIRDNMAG
- experimentNotes: phosphorylation enrichment, bacterial display (enrichment ratio); higher = better substrate or ligand; peptides without Tyr show the background
propertyLabel: phosphorylation enrichment
The reply should be a number, written without any unit.

* TENAGYYFRVS | 3.16
* LKGIRYLTSGL [PIGA_Y82_R77L] | 0.959
* DWWQEYVLNES [TGM1_Y267_R264W] | 1.55
* TRDVNYGWVIR [MT-CYB_Y75_I78V] | 1.22

For the next question, use this sequence.
What value of phosphorylation enrichment has been reported for the following sequence? EQLRAYLEGEC [HLA-C_Y183_T187E]
1.14

====

- targetEntity: EPHB1 (UniProt P54762)
- Sequence (P54762 whole entry, looked up): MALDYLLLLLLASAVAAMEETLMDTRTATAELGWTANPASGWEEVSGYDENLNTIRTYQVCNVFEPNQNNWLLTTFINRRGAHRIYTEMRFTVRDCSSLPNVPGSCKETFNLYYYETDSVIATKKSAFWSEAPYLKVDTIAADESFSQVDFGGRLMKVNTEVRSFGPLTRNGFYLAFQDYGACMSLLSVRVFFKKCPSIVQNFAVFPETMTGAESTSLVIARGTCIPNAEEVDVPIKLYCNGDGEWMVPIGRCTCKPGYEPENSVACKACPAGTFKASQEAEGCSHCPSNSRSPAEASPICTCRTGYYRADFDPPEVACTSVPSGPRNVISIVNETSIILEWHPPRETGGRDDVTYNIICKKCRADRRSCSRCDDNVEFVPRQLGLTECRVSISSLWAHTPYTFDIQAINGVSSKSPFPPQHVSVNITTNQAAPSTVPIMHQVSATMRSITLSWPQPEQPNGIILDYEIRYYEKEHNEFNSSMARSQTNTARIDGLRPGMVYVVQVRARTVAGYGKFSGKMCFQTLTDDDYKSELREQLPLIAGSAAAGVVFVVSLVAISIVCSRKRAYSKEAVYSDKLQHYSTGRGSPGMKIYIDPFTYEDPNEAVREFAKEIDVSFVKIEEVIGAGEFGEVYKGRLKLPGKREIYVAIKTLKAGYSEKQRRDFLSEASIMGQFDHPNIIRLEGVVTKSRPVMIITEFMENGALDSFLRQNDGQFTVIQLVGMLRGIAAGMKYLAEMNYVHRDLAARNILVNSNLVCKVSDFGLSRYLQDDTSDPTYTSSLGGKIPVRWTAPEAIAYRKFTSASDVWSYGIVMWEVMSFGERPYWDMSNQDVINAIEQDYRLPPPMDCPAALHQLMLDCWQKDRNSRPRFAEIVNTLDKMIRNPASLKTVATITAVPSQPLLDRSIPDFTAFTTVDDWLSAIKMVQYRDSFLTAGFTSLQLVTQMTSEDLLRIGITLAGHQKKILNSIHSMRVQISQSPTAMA
- experimentNotes: phosphorylation enrichment, bacterial display (enrichment ratio); higher = better substrate or ligand; peptides without Tyr show the background
propertyLabel: phosphorylation enrichment
The reply should be a number, written without any unit.

* QNVADYMRYLM [RPL5_Y207] | 1.98
* SGETKYNPTEA [NBEAL2_Y2748_E2747K] | 0.558
* ICANKYMVKSC [RPL10_Y75] | 0.476
* KLLRLYAVVTR [LYN_Y306_V303L] | 0.982
* SVVVHYEPPEV [TP53_Y220_P219H] | 0.699

For the next question, use this sequence.
What value of phosphorylation enrichment has been reported for the following sequence? ACEVLYNIAFM [NCF2_Y125]
0.983

====

- targetEntity: Grb2 SH2 (UniProt P62993)
- experimentNotes: SH2 binding enrichment of the phosphorylated peptide, bacterial display (enrichment ratio); higher = better substrate or ligand; peptides without Tyr show the background
propertyLabel: SH2 binding enrichment

• SVTGTYSPALN [TP53_Y126_C124G] = 0.852
• EERNPYFSSAR [MCCC2_Y520_G517R_YF] = 0.859
• GNLLIYTDFGK [HGD_Y166_E168D] = 0.891

P: HNGVSYFINLC [IGF2R_Y2024_YF]
Q: RCFVFYFSFLL [PTEN_Y177_R173C_YF]
Pick one: P or Q . Which one has the lower reported SH2 binding enrichment? Pick one and reply with its label.
P

I: DTKAFYPEEIS [HSPA1A_Y115_E110D]
II: RRERDYTNLPS [CSF1R_Y923]
III: WHHTFYNEPRV [ACTA1_Y93_L96P]
// ascending sort on recorded SH2 binding enrichment # format: label list in the order the request specifies
II, I, III

a: IYRAAYFGVYD [SLC25A4_Y191]
b: PTEAQYRFIYM [PTPN11_Y511_Q506P]
Pick one: a or b . Which one has the lower reported SH2 binding enrichment? Pick one and reply with its label.
b

====

- targetEntity: SHP2-C SH2
- experimentNotes: SH2 binding enrichment of the phosphorylated peptide, bacterial display (enrichment ratio); higher = better substrate or ligand; peptides without Tyr show the background
propertyLabel: SH2 binding enrichment

- GFEVVYVTEPI [HSP90AB1_Y512_M513V]: 0.454
- TQPSPYAVYLF [RPGRIP1_Y823_R827L]: 1.17
- SLNAVYPKAGS [OAS3_Y376_R378K]: 0.76
- LVSCTYQLATG [FGFR2_Y608_R612T]: 0.739
- LSVMSYDLGMF [GBA3_Y174]: 0.887

I: LWKWKYEELKE [CCDC102B_Y299]
II: DYLEKYYKFGC [NNMT_Y24_S29C]
Lab notebook, comparison: I versus II , higher SH2 binding enrichment goes to which? Pick one and reply with its label.
I
(I: 0.808, II: 0.53)

====

- targetEntity: Jak2 (UniProt O60674)
- experimentNotes: phosphorylation enrichment, bacterial display (enrichment ratio); higher = better substrate or ligand; peptides without Tyr show the background
propertyLabel: phosphorylation enrichment
The reply should be a number, written without any unit.

- FRIGPYQPNVP [MATR3_Y784_YF]: 0.78

Request body: readout phosphorylation enrichment, system Jak2 (UniProt O60674), query FSCLPYRRLAF [SLC52A2_Y305_G306R_YF] . Return the value.
0.806

Next record, please: YSMGCYEISLG [HMGCL_Y198]
1.38

Next record, please: KEDSAYGSQSV [NFKB2_Y868]
1.11

Next record, please: PIAPVYAASMV [ACAT1_Y331]
1.34

Next record, please: DPLLTYQFPPK [LMNA_Y481_R482Q]
0.566

Next record, please: AKKIKYFEGVS [PRKDC_Y682]
0.427

Next record, please: SVETPYGSVTF [NDRG2_Y47]
0.606

Next record, please: GRSTCYWPRPR [GAGE12J_Y10_Y9C]
0.885

Next record, please: TSNNPYFRDQA [RPGRIP1_Y846_A841T]
0.901

Next record, please: GILDVYIFLGP [GAA_Y340]
1.21

Next record, please: TRGLEYIVPLM [CLCN4_Y548_G544R]
2.02

Next record, please: ISHVAYCVLGK [TRRAP_Y892_R893C]
1.17

Next record, please: RSDEDYLFREE [POR_Y573_YF]
1.66

Next record, please: GHLYAYNWISI [BEST1_Y227_D228N]
1.33
